System: Acinetobacter baumannii strains
Procedure Summary: Antibiotic susceptibility test (CLSI disk diffusion test method, read per CLSI 2016)
Type: cell-based
Experimental Conditions: host strain YMC14/02/U1607
Measurement Name: antibiotic susceptibility class

Worked set:
{"Molecule": "C[C@@H](O)[C@H]1C(=O)N2C(C(=O)O)=C(S[C@@H]3CN[C@H](C(=O)N(C)C)C3)[C@H](C)[C@H]12 [Meropenem, meropenem]", "Measurement Name": "antibiotic susceptibility class", "Observed Measurement": "R"}
{"Molecule": "C[C@@H](O)[C@H]1C(=O)N2C(C(=O)O)=C(SCCN=CN)C[C@H]12 [Imipenem, imipenem]", "Measurement Name": "antibiotic susceptibility class", "Observed Measurement": "R"}
{"Molecule": "CCN1CCN(C(=O)N[C@@H](C(=O)N[C@@H]2C(=O)N3[C@@H]2SC(C)(C)[C@@H]3C(=O)O)c2ccccc2)C(=O)C1=O [Piperacillin, piperacillin]", "Measurement Name": "antibiotic susceptibility class", "Observed Measurement": "R"}
{"Molecule": "CC(C)(O/N=C(\\C(=O)N[C@@H]1C(=O)N2C(C(=O)[O-])=C(C[n+]3ccccc3)CS[C@H]12)c1csc(N)n1)C(=O)O [Ceftazidime, ceftazidime]", "Measurement Name": "antibiotic susceptibility class", "Observed Measurement": "R"}

### Prompt For CN(C)c1cc(NC(=O)CNC(C)(C)C)c(O)c2c1C[C@H]1C[C@H]3[C@H](N(C)C)C(O)=C(C(N)=O)C(=O)[C@@]3(O)C(O)=C1C2=O [Tigecycline, tigecycline] , write its antibiotic susceptibility class.
### Response S

### Prompt For CN(C)c1ccc(O)c2c1C[C@H]1C[C@H]3[C@H](N(C)C)C(O)=C(C(N)=O)C(=O)[C@@]3(O)C(O)=C1C2=O [Minocycline, minocycline] , write its antibiotic susceptibility class.
### Response S

### Prompt For C[C@H]1COc2c(N3CCN(C)CC3)c(F)cc3c(=O)c(C(=O)O)cn1c23 [Levofloxacin, levofloxacin] , write its antibiotic susceptibility class.
### Response R

### Prompt For CO/N=C(\C(=O)N[C@@H]1C(=O)N2C(C(=O)O)=C(COC(C)=O)CS[C@H]12)c1csc(N)n1 [Cefotaxime, cefotaxime] , write its antibiotic susceptibility class.
### Response R

### Prompt For NCC[C@H](O)C(=O)N[C@@H]1C[C@H](N)[C@@H](O[C@H]2O[C@H](CN)[C@@H](O)[C@H](O)[C@H]2O)[C@H](O)[C@H]1O[C@H]1O[C@H](CO)[C@@H](O)[C@H](N)[C@H]1O [Amikacin, amikacin] , write its antibiotic susceptibility class.
### Response S

###

Test system: Acinetobacter baumannii strains
Procedure Summary: Antibiotic susceptibility test (CLSI disk diffusion test method, read per CLSI 2016)
Format: cell-based
Experimental Conditions: host strain YMC14/04/R1078
Protocol: Strain identification was performed using a kit such as AT 32 GN system (bioMérieux, Marcy l'Etoile, France). […] In Table 2 below, S, I, and R are the results obtained by evaluating susceptibility to the antibacterial agents, in which ‘S’ means susceptible, ‘I’ means intermediate, and ‘R’ means resistant. Strain identification was performed using a kit such as ATB 32 GN system (bioMédrieux, Marcy l'Etoile, France). […]
Measurement Name: antibiotic susceptibility class

Worked set:
{"Query Smiles": "CC(C)(O/N=C(\\C(=O)N[C@@H]1C(=O)N2C(C(=O)[O-])=C(C[n+]3ccccc3)CS[C@H]12)c1csc(N)n1)C(=O)O", "Experimental Target": "Acinetobacter baumannii strains", "antibiotic susceptibility class": "R"}
{"Query Smiles": "CN(C)c1cc(NC(=O)CNC(C)(C)C)c(O)c2c1C[C@H]1C[C@H]3[C@H](N(C)C)C(O)=C(C(N)=O)C(=O)[C@@]3(O)C(O)=C1C2=O", "Experimental Target": "Acinetobacter baumannii strains", "antibiotic susceptibility class": "S"}
{"Query Smiles": "NCC[C@H](O)C(=O)N[C@@H]1C[C@H](N)[C@@H](O[C@H]2O[C@H](CN)[C@@H](O)[C@H](O)[C@H]2O)[C@H](O)[C@H]1O[C@H]1O[C@H](CO)[C@@H](O)[C@H](N)[C@H]1O", "Experimental Target": "Acinetobacter baumannii strains", "antibiotic susceptibility class": "S"}
{"Query Smiles": "C[C@H]1COc2c(N3CCN(C)CC3)c(F)cc3c(=O)c(C(=O)O)cn1c23", "Experimental Target": "Acinetobacter baumannii strains", "antibiotic susceptibility class": "R"}
{"Query Smiles": "C[C@@H](O)[C@H]1C(=O)N2C(C(=O)O)=C(S[C@@H]3CN[C@H](C(=O)N(C)C)C3)[C@H](C)[C@H]12", "Experimental Target": "Acinetobacter baumannii strains", "antibiotic susceptibility class": "R"}

Now take the following compound into account.
### Prompt For C[C@@H](O)[C@H]1C(=O)N2C(C(=O)O)=C(SCCN=CN)C[C@H]12 , write its antibiotic susceptibility class.
### Response R
